B1: Far upstream element-binding protein 2, residues 142 to 214; numbered along this chain, Q92945 (parent)
chain: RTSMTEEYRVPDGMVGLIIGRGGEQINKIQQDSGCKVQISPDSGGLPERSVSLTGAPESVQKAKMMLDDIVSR

- Variants of: B1
- assay-method-text: abundance fitness (aPCA) (normalised: wild type 0, dead -1); higher = more abundant; growth selection in yeast, the domain comes from the species named
- applied-conditions: Homo sapiens

>  <variant-identifier>
L53H

>  <abundance fitness>
-0.733

$$$$
>  <variant-identifier>
I29H

>  <abundance fitness>
-0.984

$$$$
>  <variant-identifier>
G20C

>  <abundance fitness>
-1.28

$$$$
>  <variant-identifier>
E48N

>  <abundance fitness>
-0.161

$$$$
>  <variant-identifier>
Q25T

>  <abundance fitness>
0.022

$$$$
>  <variant-identifier>
M66H

>  <abundance fitness>
-0.523

$$$$
>  <variant-identifier>
P57Y

>  <abundance fitness>
-0.402

$$$$
>  <variant-identifier>
E48P

>  <abundance fitness>
-0.065

$$$$
>  <variant-identifier>
S50T

>  <abundance fitness>
0.008

$$$$
>  <variant-identifier>
I29Q

>  <abundance fitness>
-0.841

$$$$
>  <variant-identifier>
S33R

>  <abundance fitness>
-1.06

$$$$
>  <variant-identifier>
S72M

>  <abundance fitness>
-0.024

$$$$
>  <variant-identifier>
G22Q

>  <abundance fitness>
-0.026

$$$$
>  <variant-identifier>
S50C

>  <abundance fitness>
0.043

$$$$
>  <variant-identifier>
G55K

>  <abundance fitness>
-0.681

$$$$
>  <variant-identifier>
E24I

>  <abundance fitness>
-0.251

$$$$
>  <variant-identifier>
A63T

>  <abundance fitness>
-0.69

$$$$
>  <variant-identifier>
G45D

>  <abundance fitness>
-0.102

$$$$
>  <variant-identifier>
S50M

>  <abundance fitness>
-0.125

$$$$
>  <variant-identifier>
V37S

>  <abundance fitness>
-0.815

$$$$
>  <variant-identifier>
I39F

>  <abundance fitness>
-0.177

$$$$
>  <variant-identifier>
M65C

>  <abundance fitness>
0.011

$$$$
